Measured OTUB2, listed per entry.
- Study System: OTUB2 (OTUB2A) (Homo sapiens)
- Construct: full length residues 1-234, E. coli BL21(DE3)-R3, His tag removed by TEV, construct 27312 Da
- Sequence (Q96DC9 1-234): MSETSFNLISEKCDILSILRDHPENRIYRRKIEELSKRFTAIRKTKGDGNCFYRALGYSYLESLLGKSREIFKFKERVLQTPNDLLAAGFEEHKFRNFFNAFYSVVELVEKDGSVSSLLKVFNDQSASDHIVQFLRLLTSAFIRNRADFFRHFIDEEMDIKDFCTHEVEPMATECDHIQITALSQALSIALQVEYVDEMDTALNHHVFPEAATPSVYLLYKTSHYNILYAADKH
- Set-up: Intact protein LC/MS covalent labelling, fragments in pools of five, 200 uM each, 4 °C
- Condition Set: 24 h, 4 °C, pool of five; 200 µM; covalent
Number only, no unit.

1. O=C(CCl)NC(=O)NCc1ccco1    0

**Query** Tell me its OTUB2 given Cc1ccccc1NC(=O)CCl as the entry.
**Result** 0

**Query** Give reported OTUB2 value for CN(Cc1cccc(Cl)c1)C(=O)CCl
**Result** 0

**Query** Note down OTUB2 recorded for Cc1ccc(C)c(S(=O)(=O)N2CCN(C(=O)CCl)CC2)c1
**Result** 0.06

**Query** Recall and state the measured OTUB2 for CCC(C)NC(=O)NC(=O)CCl (stereo not shown) .
**Result** 0

**Query** Given the compound Cl.O=C(CCl)N1CCN(Cc2ccc(Br)s2)CC1 , write its reported OTUB2.
**Result** 0

**Query** Read off the recorded OTUB2 for O=C1CN(C(=O)CCl)c2ccc(C(F)(F)F)cc2N1
**Result** 0

**Query** # return recorded OTUB2 for entry O=C(CCl)NCC1CCCO1 (stereo not shown)
**Result** 0.05

**Query** Specify reported OTUB2 for the compound shown: Cc1ccc(-c2cc(NC(=O)CCl)on2)cc1
**Result** 0.45

**Query** Quote OTUB2 reported for O=C(CCl)Nc1cc(F)ccc1F please.
**Result** 0.28

**Query** Determine from records and report OTUB2 for O=C(CCl)N1CCN(S(=O)(=O)c2ccc(F)cc2)CC1
**Result** 0

**Query** Identify measured OTUB2 corresponding to Cl.O=C(CCl)N1CCN(c2ccc(F)cc2)CC1
**Result** 0.07

**Query** Provide OTUB2 value for the following compound: C=CC(=O)N1CCC(S(=O)(=O)NC)C1 (stereo not shown)
**Result** 0

**Query** For the compound N#CCc1ccc(NC(=O)CCl)cc1 , give its reported OTUB2.
**Result** 0.43

**Query** Indicate its recorded OTUB2; the compound in question is COc1ccc(C2CCCCCN2C(=O)CCl)cc1 (stereo not shown)
**Result** 0

**Query** For the compound C=CC(=O)N1CC2CC3CC(C2)CC1C3 , give its measured OTUB2 value.
**Result** 0.24

**Query** # return recorded OTUB2 for input O=C(CCl)N1CCC2CCCCC2C1 (stereo not shown)
**Result** 0

**Query** Tell me measured OTUB2 for Cc1nc(CN2CCN(C(=O)CCl)CC2)cs1 please.
**Result** 0

**Query** Look up OTUB2 of C=CC(=O)N1CCOCC1c1cccn1C (stereo not shown) and report it.
**Result** 0

**Query** Determine its reported OTUB2: O=C(CCl)NCc1ccc(Cl)s1
**Result** 0.79

**Query** // fetch OTUB2 given entry COC(=O)c1cccc(NC(=O)CCl)c1O
**Result** 0.23

**Query** Find the measured OTUB2 of O=C(CCl)Nc1nc(-c2cccs2)cs1 and report it.
**Result** 0.07

**Query** Supply recorded OTUB2 for CC(=O)c1cccc(NC(=O)CCl)c1 here.
**Result** 0.36

**Query** Note OTUB2 for the compound shown: C=CC(=O)N1CCCC2(CCS(=O)(=O)C2)C1 (stereo not shown)
**Result** 0

**Query** Annotate the compound C=CC(=O)N1CCC(S(=O)(=O)C(C)C)CC1 with its measured OTUB2.
**Result** 0

**Query** Given the compound C=CC(=O)Nc1ccccc1C(F)(F)F , write its reported OTUB2.
**Result** 0

**Query** Report measured OTUB2; entry is O=C(CCl)N1CCN(S(=O)(=O)c2cccc(F)c2)CC1
**Result** 0

**Query** Return the recorded OTUB2 value; entry: C=CC(=O)N1CCCC(NC(=O)c2ccc(C(F)(F)F)cc2)C1 (stereo not shown)
**Result** 0

###

- Test Name: in vitro
- Set-up: species or system HB2, HEK293
- Condition Set: human, ccd841 cells
Here, each record is paired with measured viability at 48 h, 10 µM data.
Quick note: give the figure in %, leave out the unit.

Some compounds with known viability at 48 h, 10 µM results, for comparison:
1. CCN(C(=O)CCl)c1ccc(F)cc1    13.6
2. CNC(=O)C1CN(C(=O)CCl)c2ccccc2O1 (stereo not drawn)    58.1

**Query** Please give the documented viability at 48 h, 10 µM of O=C(CCl)N(C1CC1)C1CCS(=O)(=O)C1 (stereo not drawn)
**Result** 85.1

###

Below, each of the compounds is paired with its reported OTUB2 value.
- Study System: OTUB2 (OTUB2A) (Homo sapiens, UniProt Q96DC9)
- Construct: full length residues 1-234, E. coli BL21(DE3)-R3, His tag removed by TEV, construct 27312 Da
- Parameters: Intact protein LC/MS covalent labelling, fragments in pools of five, 200 uM each, 4 °C
- Condition Set: 24 h, 4 °C, pool of five; 200 µM; covalent

**Query** Note down OTUB2 recorded for C=CC(=O)Nc1cc(F)ccc1C
**Result** 0

**Query** Respond only with OTUB2 recorded for C=CC(=O)N1CCCC(c2nnc3ccc(C(F)(F)F)cn23)C1 (stereo not drawn)
**Result** 0

**Query** Given the compound O=C(CCl)N1CCC(C(=O)N2CCCC2)CC1 , write its reported OTUB2.
**Result** 0

###

- Study System: OTUB2 (OTUB2A) (Homo sapiens, UniProt Q96DC9)
- Construct: full length residues 1-234, E. coli BL21(DE3)-R3, His tag removed by TEV, construct 27312 Da
- Design: Intact protein LC/MS covalent labelling, fragments in pools of five, 200 uM each, 4 °C
- Condition Set: 24 h, 4 °C, pool of five; 200 µM; covalent
Readout Type: OTUB2
Just the number.

1) O=C(CCl)N1CCN(C(=O)c2ccco2)CC1    0
2) COCC(=O)NC(=O)CCl    0
3) CNC(=O)C1CCCN1C(=O)CCl (stereo not drawn)    0
4) O=C(CCl)Nc1cccc(Cl)c1Cl    0

Okay, next one:
**Query** Give the value of OTUB2 reported for the following: C=CC(=O)Nc1cc(N)ccc1F
**Result** 0

###

- Test Name: in vitro
- Design: species or system HB2, HEK293
- Condition Set: human, ccd841 cells
# note: exactly 90% is not below, so it is criterion not met; use criterion met for viability at 48 h, 10 µM strictly under it

Example cases with answers are listed next.
1) Cc1cc(NC(=O)CCl)ccc1N1CCCC1    criterion met
2) CSc1ccc(NC(=O)CCl)cc1    criterion met
3) Cc1ccc(NC(=O)CCl)c(C)c1    criterion met
4) C=CC(=O)Nc1sc2c(c1C#N)CCCC2    criterion met
5) C=CC(=O)Nc1ccc2c(c1)OCO2    criterion not met

**Query** Please let me know if C=CC(=O)N1CCCC(c2nncn2C2CC2)C1 (stereo not drawn) shows viability at 48 h, 10 µM below 90%.
**Result** criterion not met

**Query** Just wondering, is viability at 48 h, 10 µM of O=C(CCl)NC(=O)c1ccco1 below 90%?
**Result** criterion not met

###

- Test Name: in vitro
- Design: species or system HB2, HEK293
- Condition Set: human, ccd841 cells
Readout Type: viability at 48 h, 10 µM (%)
Express your answer in %, writing the number without its unit.

1) O=C(CCl)NNC(=O)c1ccc(Cl)cc1    82.1

**Query** Annotate the compound C=CC(=O)Nc1ccc(OC)c(F)c1 with its measured viability at 48 h, 10 µM.
**Result** 106

**Query** Supply reported viability at 48 h, 10 µM belonging to this compound: CN1CCN(C(=O)CCl)CC1
**Result** 109

###

Listed next: entries and their corresponding OTUB2.
- Study System: OTUB2 (OTUB2A) (Homo sapiens)
- Construct: full length residues 1-234, E. coli BL21(DE3)-R3, His tag removed by TEV, construct 27312 Da
- Design: Intact protein LC/MS covalent labelling, fragments in pools of five, 200 uM each, 4 °C
- Condition Set: 24 h, 4 °C, pool of five; 200 µM; covalent
Give the value as a plain number.

1) COc1cc(Cl)c(C)cc1NC(=O)CCl [PCM-0102210]    0.25

**Query** With OTUB2 (OTUB2A) (Homo sapiens) as the test system, provide measured OTUB2 for this compound: O=C(CCl)N1CCCCC1 [PCM-0102514]
**Result** 0

**Query** Send back OTUB2 (OTUB2A) (Homo sapiens) OTUB2 of CC(=O)c1ccc(N2CCN(C(=O)CCl)CC2)c(F)c1 [PCM-0102273] only.
**Result** 0

**Query** GET OTUB2 where system = OTUB2 (OTUB2A) (Homo sapiens) and item = O=C(CCl)NC(=O)NCc1cccs1 [PCM-0102753]
**Result** 0.23

**Query** GET OTUB2 | system: OTUB2 (OTUB2A) (Homo sapiens) | item: Cl.O=C(CCl)NCc1ccccn1 [PCM-0102950]
**Result** 0

**Query** Please indicate recorded OTUB2 of C=CC(=O)Nc1cccc(C#N)c1 [PCM-0102956] measured with OTUB2 (OTUB2A) (Homo sapiens).
**Result** 0

**Query** Give measured OTUB2 for Cc1cccc(C(=O)O)c1NC(=O)CCl [PCM-0102167] (OTUB2 (OTUB2A) (Homo sapiens)).
**Result** 0

**Query** Give OTUB2 for this entry on OTUB2 (OTUB2A) (Homo sapiens): C=CC(=O)N1CCNC(=O)C1c1c(F)cccc1Cl (stereo not drawn) [PCM-0102490]
**Result** 0

**Query** Report OTUB2 under test system OTUB2 (OTUB2A) (Homo sapiens) for Cc1ccc(CNC(=O)CCl)s1 [PCM-0102973] .
**Result** 0.75

**Query** Send back OTUB2 (OTUB2A) (Homo sapiens) OTUB2 of CN(C(=O)CCl)C1CCS(=O)(=O)C1 (stereo not drawn) [PCM-0102178] only.
**Result** 0

**Query** Under OTUB2 (OTUB2A) (Homo sapiens), report OTUB2 for COc1ccc(NC(=O)CCl)cn1 [PCM-0102140]
**Result** 0

**Query** Enter measured OTUB2, system OTUB2 (OTUB2A) (Homo sapiens), for the compound shown: CC(C)N(C(=O)CCl)C1CCCCC1 [PCM-0102941]
**Result** 0

**Query** Find OTUB2 for C=CC(=O)Nc1nc(-c2ccc(O)cc2)cs1 [PCM-0102884] on OTUB2 (OTUB2A) (Homo sapiens) and write it down.
**Result** 0

**Query** For OTUB2 (OTUB2A) (Homo sapiens), give OTUB2 of the listed compound: O=C(CCl)N1CCc2cc(S(=O)(=O)N3CCCCC3)ccc21 [PCM-0102705]
**Result** 0

**Query** Name the recorded OTUB2 of CC(C#N)(NC(=O)CCl)C1CC1 (stereo not drawn) [PCM-0102664] , assay system OTUB2 (OTUB2A) (Homo sapiens).
**Result** 0

**Query** // fetch OTUB2 for CCN(C(=O)CCl)c1nc2ccccc2s1 [PCM-0102186] ; system: OTUB2 (OTUB2A) (Homo sapiens)
**Result** 0

**Query** Provide OTUB2, tested on OTUB2 (OTUB2A) (Homo sapiens), for O=C(CCl)NCC(=O)N1CCCC1 [PCM-0102391] .
**Result** 0

**Query** # lookup: OTUB2 (OTUB2A) (Homo sapiens) OTUB2, key = C=CC(=O)NC1CCCN(c2cnn(C)c2)C1 (stereo not drawn) [PCM-0102480]
**Result** 0

**Query** Give OTUB2 only, for NS(=O)(=O)c1ccc(Cl)c(NC(=O)CCl)c1 [PCM-0103012] , using OTUB2 (OTUB2A) (Homo sapiens) data.
**Result** 0.1

**Query** Please look at CC(NC(=O)CCl)C(=O)N1CCCCC1 (stereo not drawn) [PCM-0102598] and tell me its recorded OTUB2 on OTUB2 (OTUB2A) (Homo sapiens).
**Result** 0

**Query** Supply OTUB2 measured with OTUB2 (OTUB2A) (Homo sapiens) for C=CC(=O)N1CCC(C(=O)c2ccc3c(c2)NC(=O)C(C)O3)CC1 (stereo not drawn) [PCM-0102524] .
**Result** 0

**Query** Give measured OTUB2 for CC(C)(O)CNC(=O)CCl [PCM-0102554] (OTUB2 (OTUB2A) (Homo sapiens)).
**Result** 0
